Values from PubChem BioAssay (NCI)

- Tested on: SF-539 CNS
- assay-explanation: NCI tumour cell line growth inhibition, 48 h
parameter-measured: TGI

Given "O=C1C(Cl)=C(Nc2ccc(S(=O)(=O)O)cc2)C(=O)c2ccccc21" , state its recorded TGI.
57.9 µM

I'd like to know its TGI. The compound in question is "Clc1ccc(Nc2nc3ccccc3nc2-c2cccs2)cc1Cl"
> 100 µM

Fill in the blank: the reported TGI of "CCCN(CCS(C)(=O)=O)Cc1ccc(-c2ccc3ncnc(Nc4ccc(OCc5cccc(F)c5)c(Cl)c4)c3c2)o1" is ____.
> 25 µM

GET /values?readout=TGI&item= "COc1cc2c(c(OC)c1)/C(=C/Sc1ccccc1)C(=O)N(C(C)(C)C)C2"
> 100 µM

What TGI value was documented for this compound, "CO/N=C(\COc1ccc2c(c1)[nH]c1ccccc12)c1ccc(F)cc1" ?
> 100 µM

Please give the measured TGI for this compound: CCOC(=O)C1C(=S)NC(=O)C1C#N (stereo unspecified)
> 100 µM

I'd like to know its TGI. The compound in question is "O=S(=O)(c1ccc(Cl)cc1)C(Cl)(Cl)Cl"
29 µM

Name the reported TGI value associated with the compound "COc1cc2nc(N3CCCC3)nc(NCCc3ccccc3)c2cc1OC"
3.21 µM

Please report the recorded TGI for "CC1=NC(=Cc2cccc(Cl)c2)C(=O)N1n1c(-c2ccccc2)nc2ccccc2c1=O" .
> 100 µM

I'd like to know its TGI. The compound in question is COC(=O)C1(C)CCc2c(OC)ccc(OC)c2C1=O (stereo unspecified)
> 100 µM

If you can, please state the reported TGI value of "CCCCn1c(N)c(-c2nc3ccccc3o2)sc1=S" .
23.2 µM

Entry "C/C(=N\Nc1ccc([N+](=O)[O-])cc1[N+](=O)[O-])c1sc(-n2nc(-c3ccccc3)cc2-c2ccccc2)nc1C" has what TGI?
> 100 µM

Name the recorded TGI for "CN1c2ccccc2C(=O)NC12CCN(CCCC(=O)c1ccc(F)cc1)CC2" .
> 100 µM

Report TGI for CSc1nc2c(c(=O)[nH]1)N=C(c1ccc([N+](=O)[O-])cc1)CC(c1ccccc1)N2 (stereo unspecified) please.
76.2 µM

Could you share which TGI value was measured for CCC(CCCN)Nc1cc(OC)cc2c(C)ccnc12 (stereo unspecified) ?
33.4 µM

Need TGI, item O=C1NC(=O)C2C(=O)NC(=O)C1C2c1c(Cl)cccc1Cl (stereo unspecified)
> 100 µM

Which measured TGI value corresponds to "Cc1ccc(/C=C/C(=O)C(C)(C)CN2CCCCC2)cc1" ?
16.8 µM

Given the compound CC#CCC1CCC(OCC)=CC1=O (stereo unspecified) , what is its reported TGI?
> 100 µM

Param item = COc1cc2c(cc1C1COc3cc4occc4cc3C1=O)OCO2 (stereo unspecified) ; retrieve measured TGI.
> 100 µM

I have this compound here, COC(=O)[C@@H]1CC(C(C[N+](=O)[O-])c2ccc(O[Si](C)(C)C(C)(C)C)cc2)C(=O)N1C(=O)OC(C)(C)C (stereo partly specified) , and I need its recorded TGI.
> 100 µM

Query: TGI; subject: "CC(=O)CN(Cc1cc(C)c2c(c1)c1ccccc1n2Cc1ccccc1)S(=O)(=O)c1ccc(C)cc1"
> 100 µM
